Catalogue of melting point readings, one per entry.

Examples with answers:
{"columns": ["smiles.representation", "measured.parameter", "readout.value"],
 "data": [
  ["O=[N+]([O-])c1cccc(S(=O)(=O)Oc2ccc(/C=C/c3ccccc3)cc2)c1", "melting point", "152 to 155 °C"],
  ["CS(=O)(=O)Nc1ccc(/C=C/c2ccccc2)cc1", "melting point", "250 to 251 °C"],
  ["O=S(=O)(Oc1ccc(/C=C/c2ccccc2)cc1)c1ccccc1", "melting point", "127 to 130 °C"],
  ["O=S(=O)(Nc1ccc(/C=C/c2ccccc2)cc1)c1ccc(Cl)s1", "melting point", "200 to 202 °C"]
]}

We now examine a further molecule.
May I ask what melting point has been recorded for Cc1ccc(S(=O)(=O)Nc2ccc(/C=C/c3ccccc3)cc2)cc1[N+](=O)[O-] ?
246 to 247 °C

###

Test system: MCF7 breast cancer cell line
assay.text: Cell metabolic activity / viability (MTT assay) on MCF7
Type: cell-based, human
test.parameters: MCF7, 500 µM, 72 h
Overview of recorded Viability (% of control) - 72 h for various compounds

{"columns": ["compound", "readout.value"],
 "data": [
  ["Oc1ccc(/C=C/c2cc(O)cc(O)c2)cc1 [RSV, trans-3,4′,5-trihydroxystilbene, reference compound]", "15.33 ± 4.88 % of control"],
  ["O=S(=O)(Cc1ccccc1)Oc1ccc(/C=C/c2ccccc2)cc1 [1j]", "46.31 ± 4.73 % of control"],
  ["Cc1ccc(S(=O)(=O)Oc2ccc(/C=C/c3ccccc3)cc2)cc1[N+](=O)[O-] [1c]", "15.08 ± 0.67 % of control"]
]}

Can you share its Viability (% of control) - 72 h? I mean this compound: O=[N+]([O-])c1cccc(S(=O)(=O)Oc2ccc(/C=C/c3ccccc3)cc2)c1 [1b]
36.11 ± 0.35 % of control

###

Listing of recorded Viability (% of control) - 72 h by entry.
Tested on: MCF7 breast cancer cell line
assay.text: Cell metabolic activity / viability (MTT assay) on MCF7
Type: cell-based, human
test.parameters: MCF7, 10 µM, 72 h

A selection of reference data follows.
{"columns": ["compound", "experimental.system", "readout.value"],
 "data": [
  ["Oc1ccc(/C=C/c2cc(O)cc(O)c2)cc1 [RSV, trans-3,4′,5-trihydroxystilbene, reference compound]", "MCF7 breast cancer cell line", "91.92 ± 5.44 % of control"],
  ["Cc1ccc(S(=O)(=O)Oc2ccc(/C=C/c3ccccc3)cc2)cc1[N+](=O)[O-]", "MCF7 breast cancer cell line", "96.62 ± 6.99 % of control"],
  ["O=S(=O)(Cc1ccccc1)Oc1ccc(/C=C/c2ccccc2)cc1", "MCF7 breast cancer cell line", "96.53 ± 7.12 % of control"]
]}

Tell me the measured Viability (% of control) - 72 h of O=[N+]([O-])c1cccc(S(=O)(=O)Oc2ccc(/C=C/c3ccccc3)cc2)c1 , please.
98.33 ± 5.24 % of control

###

System: MCF7 breast cancer cell line
assay.text: Cell metabolic activity / viability (MTT assay) on MCF7
Type: cell-based, human
test.parameters: MCF7, 50 µM, 72 h
measured.parameter: Viability (% of control) - 72 h

Worked set:
{"columns": ["molecule", "Viability (% of control) - 72 h"],
 "data": [
  ["Cc1ccc(S(=O)(=O)Oc2ccc(/C=C/c3ccccc3)cc2)cc1[N+](=O)[O-]", "46.19 ± 1.67 % of control"],
  ["O=[N+]([O-])c1cccc(S(=O)(=O)Oc2ccc(/C=C/c3ccccc3)cc2)c1", "93.39 ± 5.39 % of control"],
  ["Oc1ccc(/C=C/c2cc(O)cc(O)c2)cc1 [RSV, trans-3,4′,5-trihydroxystilbene, reference compound]", "66.54 ± 5.77 % of control"]
]}

Proceed to the following item.
Identify the measured Viability (% of control) - 72 h of O=S(=O)(Cc1ccccc1)Oc1ccc(/C=C/c2ccccc2)cc1 for MCF7 breast cancer cell line.
87.57 ± 5.26 % of control

###

Tested on: MCF7 breast cancer cell line
assay.text: Cell metabolic activity / viability (MTT assay) on MCF7
Format: cell-based, human
test.parameters: MCF7, 50 µM, 24 h
Viability (% of control) - 24 h overview

Recorded Viability (% of control) - 24 h, per entry:
{"columns": ["molecule", "readout.value"],
 "data": [
  ["O=[N+]([O-])c1cccc(S(=O)(=O)Oc2ccc(/C=C/c3ccccc3)cc2)c1 [1b]", "80.69 ± 4.08 % of control"],
  ["O=S(=O)(Cc1ccccc1)Oc1ccc(/C=C/c2ccccc2)cc1 [1j]", "70.06 ± 3.80 % of control"],
  ["Oc1ccc(/C=C/c2cc(O)cc(O)c2)cc1 [RSV, trans-3,4′,5-trihydroxystilbene, reference compound]", "87.44 ± 1.93 % of control"]
]}

Which value of Viability (% of control) - 24 h has been reported for Cc1ccc(S(=O)(=O)Oc2ccc(/C=C/c3ccccc3)cc2)cc1[N+](=O)[O-] [1c] in the records?
37.39 ± 0.66 % of control

###

Measured Viability (% of control) - 24 h, listed per entry.
System: MCF7 breast cancer cell line
assay.text: Cell metabolic activity / viability (MTT assay) on MCF7
Format: cell-based, human
test.parameters: MCF7, 10 µM, 24 h

{"columns": ["molecule", "measured.parameter", "readout.value"],
 "data": [
  ["Cc1ccc(S(=O)(=O)Oc2ccc(/C=C/c3ccccc3)cc2)cc1[N+](=O)[O-]", "Viability (% of control) - 24 h", "85.23 ± 1.29 % of control"],
  ["O=[N+]([O-])c1cccc(S(=O)(=O)Oc2ccc(/C=C/c3ccccc3)cc2)c1", "Viability (% of control) - 24 h", "69.32 ± 14.99 % of control"],
  ["Oc1ccc(/C=C/c2cc(O)cc(O)c2)cc1 [RSV, trans-3,4′,5-trihydroxystilbene, reference compound]", "Viability (% of control) - 24 h", "80.27 ± 3.18 % of control"]
]}

The record that follows has no Viability (% of control) - 24 h shown yet.
So what does the record say about Viability (% of control) - 24 h for O=S(=O)(Cc1ccccc1)Oc1ccc(/C=C/c2ccccc2)cc1 ?
85.47 ± 6.41 % of control

###

Collected Viability (% of control) - 24 h values appear next to each entry.
Tested on: MCF7 breast cancer cell line
assay.text: Cell metabolic activity / viability (MTT assay) on MCF7
Type: cell-based, human
test.parameters: MCF7, 250 µM, 24 h

{"columns": ["compound", "experimental.system", "readout.value"],
 "data": [
  ["O=S(=O)(Cc1ccccc1)Oc1ccc(/C=C/c2ccccc2)cc1", "MCF7 breast cancer cell line", "51.84 ± 3.08 % of control"]
]}

Lab note: need Viability (% of control) - 24 h with MCF7 breast cancer cell line for entry O=[N+]([O-])c1cccc(S(=O)(=O)Oc2ccc(/C=C/c3ccccc3)cc2)c1 , please look it up.
45.57 ± 3.42 % of control

Test system MCF7 breast cancer cell line; read-out Viability (% of control) - 24 h; what value for Cc1ccc(S(=O)(=O)Oc2ccc(/C=C/c3ccccc3)cc2)cc1[N+](=O)[O-] ?
38.64 ± 1.23 % of control

Record lookup: for MCF7 breast cancer cell line, what Viability (% of control) - 24 h belongs to Oc1ccc(/C=C/c2cc(O)cc(O)c2)cc1 [RSV, trans-3,4′,5-trihydroxystilbene, reference compound] ?
60.29 ± 0.93 % of control

###

Test system: MCF7 breast cancer cell line
assay.text: Cell metabolic activity / viability (MTT assay) on MCF7
Assay type: cell-based, human
test.parameters: MCF7, 25 µM, 72 h
measured.parameter: Viability (% of control) - 72 h

Example cases with answers are listed next.
{"columns": ["molecule", "Viability (% of control) - 72 h"],
 "data": [
  ["O=S(=O)(Cc1ccccc1)Oc1ccc(/C=C/c2ccccc2)cc1", "95.30 ± 7.88 % of control"],
  ["Cc1ccc(S(=O)(=O)Oc2ccc(/C=C/c3ccccc3)cc2)cc1[N+](=O)[O-]", "91.88 ± 5.31 % of control"],
  ["O=[N+]([O-])c1cccc(S(=O)(=O)Oc2ccc(/C=C/c3ccccc3)cc2)c1", "99.99 ± 9.30 % of control"]
]}

Let us move to another entry and its Viability (% of control) - 72 h.
For Oc1ccc(/C=C/c2cc(O)cc(O)c2)cc1 [RSV, trans-3,4′,5-trihydroxystilbene, reference compound] , what is its reported Viability (% of control) - 72 h?
73.93 ± 9.52 % of control

###

The entries below are paired with their reported Viability (% of control) - 24 h.
Tested on: MCF7 breast cancer cell line
assay.text: Cell metabolic activity / viability (MTT assay) on MCF7;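 note: MTT optical density read-out in human MCF7 cells, normalised to DMSO vehicle-treated cells as 100%, with IC50 derived from fitted concentration–response curves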
Format: cell-based, human
test.parameters: MCF7, 25 µM, 24 h

Here is how some compounds turned out for Viability (% of control) - 24 h.
{"columns": ["compound", "Viability (% of control) - 24 h"],
 "data": [
  ["O=S(=O)(Cc1ccccc1)Oc1ccc(/C=C/c2ccccc2)cc1", "86.33 ± 14.64 % of control"],
  ["Oc1ccc(/C=C/c2cc(O)cc(O)c2)cc1 [RSV, trans-3,4′,5-trihydroxystilbene, reference compound]", "84.94 ± 6.59 % of control"],
  ["O=[N+]([O-])c1cccc(S(=O)(=O)Oc2ccc(/C=C/c3ccccc3)cc2)c1", "79.12 ± 9.66 % of control"]
]}

--- query ---
So what does the record say about Viability (% of control) - 24 h for Cc1ccc(S(=O)(=O)Oc2ccc(/C=C/c3ccccc3)cc2)cc1[N+](=O)[O-] ?
73.08 ± 2.67 % of control
